# SYSTEM_NAME: PI3Kα (p110α/p85α) (Homo sapiens (Human), UniProt P42336)
# Sequence (P42336 whole entry): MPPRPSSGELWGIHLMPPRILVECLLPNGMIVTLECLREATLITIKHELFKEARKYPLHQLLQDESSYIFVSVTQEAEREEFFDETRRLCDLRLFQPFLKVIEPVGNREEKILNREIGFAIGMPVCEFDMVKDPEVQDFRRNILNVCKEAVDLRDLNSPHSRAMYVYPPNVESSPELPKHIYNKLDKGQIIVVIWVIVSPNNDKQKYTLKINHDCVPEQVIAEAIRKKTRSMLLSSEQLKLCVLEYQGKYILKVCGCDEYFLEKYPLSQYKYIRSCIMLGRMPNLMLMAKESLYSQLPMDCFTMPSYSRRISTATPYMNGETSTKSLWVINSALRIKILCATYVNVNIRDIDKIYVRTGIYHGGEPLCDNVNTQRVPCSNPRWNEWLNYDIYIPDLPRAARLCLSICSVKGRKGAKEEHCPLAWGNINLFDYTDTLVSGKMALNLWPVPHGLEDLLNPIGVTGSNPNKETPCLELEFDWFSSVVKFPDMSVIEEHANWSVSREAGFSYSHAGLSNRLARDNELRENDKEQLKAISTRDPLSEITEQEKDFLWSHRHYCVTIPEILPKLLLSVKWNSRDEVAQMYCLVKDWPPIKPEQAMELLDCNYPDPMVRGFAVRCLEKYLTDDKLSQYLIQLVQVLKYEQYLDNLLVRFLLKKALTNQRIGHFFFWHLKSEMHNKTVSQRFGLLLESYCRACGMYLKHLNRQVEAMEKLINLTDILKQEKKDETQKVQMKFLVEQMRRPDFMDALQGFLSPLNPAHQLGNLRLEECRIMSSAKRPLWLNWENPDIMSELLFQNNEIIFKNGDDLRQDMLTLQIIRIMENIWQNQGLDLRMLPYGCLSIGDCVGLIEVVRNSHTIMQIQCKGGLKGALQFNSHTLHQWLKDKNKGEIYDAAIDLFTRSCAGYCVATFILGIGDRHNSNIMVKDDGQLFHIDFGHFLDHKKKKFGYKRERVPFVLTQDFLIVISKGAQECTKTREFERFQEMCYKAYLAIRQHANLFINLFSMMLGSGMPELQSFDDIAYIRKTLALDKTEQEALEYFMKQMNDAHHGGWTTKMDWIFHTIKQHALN
# Sequence (P27986 whole entry partner): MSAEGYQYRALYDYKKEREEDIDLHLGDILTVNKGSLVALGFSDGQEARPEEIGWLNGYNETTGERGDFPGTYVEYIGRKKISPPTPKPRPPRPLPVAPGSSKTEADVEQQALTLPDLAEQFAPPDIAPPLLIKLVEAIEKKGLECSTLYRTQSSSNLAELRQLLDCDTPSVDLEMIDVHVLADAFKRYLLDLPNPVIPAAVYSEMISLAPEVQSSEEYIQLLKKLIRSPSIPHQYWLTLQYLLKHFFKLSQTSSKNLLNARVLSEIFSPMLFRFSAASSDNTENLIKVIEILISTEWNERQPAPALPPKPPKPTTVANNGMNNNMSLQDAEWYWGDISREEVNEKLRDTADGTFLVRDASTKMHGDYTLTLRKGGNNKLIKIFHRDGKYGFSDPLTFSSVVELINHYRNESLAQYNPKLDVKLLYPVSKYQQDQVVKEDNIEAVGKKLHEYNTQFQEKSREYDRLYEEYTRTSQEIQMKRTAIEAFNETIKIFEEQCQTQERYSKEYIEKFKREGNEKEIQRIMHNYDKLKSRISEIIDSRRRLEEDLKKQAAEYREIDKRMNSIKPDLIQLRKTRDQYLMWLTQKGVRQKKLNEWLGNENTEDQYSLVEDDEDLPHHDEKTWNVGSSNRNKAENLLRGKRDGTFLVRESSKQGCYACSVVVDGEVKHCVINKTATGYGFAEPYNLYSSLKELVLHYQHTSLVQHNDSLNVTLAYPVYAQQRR
# ASSAY_PROCEDURE: PI3Kα enzymatic test by measuring the consumption of ATP
# Assay type: biochemical
READOUT: PI3Ka IC50

Provide measured PI3Ka IC50 value, entry: COc1ccnc(NC(=O)Nc2ccc(-c3nc(N4CC5CCC(C4)O5)nc4c3C(=O)N(C)CC(C)(C)O4)cc2)c1 [Example 21] >10 µM

Please report PI3Ka IC50 for the following compound: CCN1CC(C)(C)Oc2nc(N3CC4CCC(C3)O4)nc(-c3ccc(NC(=O)Nc4cccc(C(F)(F)F)c4)cc3)c2C1=O [Example 147] >10 µM

Provide one value: measured PI3Ka IC50 of CCN1CC(C)(C)Oc2nc(N3CC4CCC(C3)O4)nc(-c3ccc(NC(=O)NC)cc3F)c2C1=O [Example 47] >10 µM

Tell me PI3Ka IC50 reported for COCCN1CC(C)(C)Oc2nc(N3CC4CCC(C3)O4)nc(-c3ccc(NC(=O)Nc4ccc(F)cc4F)cc3)c2C1=O [Example 162] >10 µM

Return PI3Ka IC50 (reported value) for this compound: CCN1CC(C)(C)Oc2nc(N3CC4CCC(C3)O4)nc(-c3ccc(Nc4nnc(C)[nH]4)c(F)c3)c2C1=O [Example 152] >10 µM
